Where these numbers come from: PubChem BioAssay

MEASURED_TARGET: L-lactate dehydrogenase (Plasmodium falciparum (isolate CDC / Honduras)) (UniProt Q27743)
Sequence (Q27743 whole entry, looked up): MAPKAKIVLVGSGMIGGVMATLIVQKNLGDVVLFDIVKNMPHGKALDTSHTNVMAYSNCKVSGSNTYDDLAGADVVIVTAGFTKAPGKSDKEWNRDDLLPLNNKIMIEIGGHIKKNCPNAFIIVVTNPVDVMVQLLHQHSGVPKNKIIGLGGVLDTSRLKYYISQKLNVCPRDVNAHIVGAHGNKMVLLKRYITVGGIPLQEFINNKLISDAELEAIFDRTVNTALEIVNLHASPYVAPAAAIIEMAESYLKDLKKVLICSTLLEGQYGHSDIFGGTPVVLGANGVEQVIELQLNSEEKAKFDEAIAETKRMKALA
METHOD: PfLDH activity inhibition – cell lysate, 3D7 strain, counter-screen for P. falciparum growth inhibition project (AID 2304);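 also: 0% = vehicle and 100% = reference inhibitor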
REPORTED_CONDITIONS: P. falciparum 3D7 crude extract, LDH APAD/NBT absorbance; at 2 µM; active compounds read high
MEASUREMENT_NAME: inhibition (%)

>  <COMPOUND>
CN(C)CCN(C)Cc1ccc(-c2cccc(NC(=O)c3ccc(Cl)cc3)c2)cc1

>  <MEASUREMENT_NAME>
inhibition

>  <UNIT_TEXT>
%

>  <RESULT_NUMBER>
-5

$$$$
>  <COMPOUND>
CC(C)(C)C(=O)Nc1ccc(N2CCN(C(c3ccccc3)c3ccccc3)CC2)c(Cl)c1

>  <MEASUREMENT_NAME>
inhibition

>  <UNIT_TEXT>
%

>  <RESULT_NUMBER>
0

$$$$
>  <COMPOUND>
C#CCOc1ccc(N2C(N)=NC(N)=NC2(C)C)cc1

>  <MEASUREMENT_NAME>
inhibition

>  <UNIT_TEXT>
%

>  <RESULT_NUMBER>
6

$$$$
>  <COMPOUND>
CCCCCc1cnc2nc(N)nc(N)c2c1

>  <MEASUREMENT_NAME>
inhibition

>  <UNIT_TEXT>
%

>  <RESULT_NUMBER>
-1

$$$$
>  <COMPOUND>
CCOC(=O)Nc1cc(-c2csc(N=C(N)N)n2)cc([N+](=O)[O-])c1

>  <MEASUREMENT_NAME>
inhibition

>  <UNIT_TEXT>
%

>  <RESULT_NUMBER>
-8

$$$$
>  <COMPOUND>
Cc1cccc2[nH]c(-c3ccc(-c4ccc(CNCc5cnn(-c6ccccc6)n5)cc4)s3)nc12

>  <MEASUREMENT_NAME>
inhibition

>  <UNIT_TEXT>
%

>  <RESULT_NUMBER>
-3

$$$$
>  <COMPOUND>
CNC(=O)c1cnc(Nc2ccc(OCC(O)CN(C)C)cc2)nc1Nc1cccc(OC)c1 (stereo unspecified)

>  <MEASUREMENT_NAME>
inhibition

>  <UNIT_TEXT>
%

>  <RESULT_NUMBER>
1

$$$$
>  <COMPOUND>
Cc1c(Cc2ccc(F)cc2)c(Cl)nc2nc(N)nc(N)c12

>  <MEASUREMENT_NAME>
inhibition

>  <UNIT_TEXT>
%

>  <RESULT_NUMBER>
-2

$$$$
>  <COMPOUND>
CCCNC(=O)c1cncc(-c2cccc(CNC3Cc4ccccc4C3)c2)c1

>  <MEASUREMENT_NAME>
inhibition

>  <UNIT_TEXT>
%

>  <RESULT_NUMBER>
-3

$$$$
>  <COMPOUND>
CN(C)Cc1cc2c(O)c(Cc3ccccc3)ccc2o1

>  <MEASUREMENT_NAME>
inhibition

>  <UNIT_TEXT>
%

>  <RESULT_NUMBER>
-8

$$$$
>  <COMPOUND>
Cc1cc(OCC2CCN(c3ncc(C(=O)Nc4ccccc4)cc3Cl)CC2)ccc1F

>  <MEASUREMENT_NAME>
inhibition

>  <UNIT_TEXT>
%

>  <RESULT_NUMBER>
-2

$$$$
